# assayed_target: Aβ1-42 (Homo sapiens, UniProt P05067)
# Construct: Aβ^1-42 (AnaSpec, lot 45685); purchased AnaSpec
# Sequence (P05067 672-713 limits assumed): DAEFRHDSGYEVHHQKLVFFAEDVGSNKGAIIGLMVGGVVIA
# assay_summary: Kinetic Thioflavin T (ThT) aggregation assay of Aβ1-42
# Assay type: biochemical
# condition_summary: 20 μM Aβ1-42, kinetic ThT assay
readout_type: inhibition of Aβ1-42 aggregation, as measured by ThT fluorescence

1. B.COc1ccc2[nH]cc(-c3c[nH]c4ncccc34)c2c1 [10n, 3-(5-methoxyindol-3-yl)-7-azaindole.BH3] :: inhibit aggregation
2. B.O=C(O)c1ccc2[nH]cc(-c3c[nH]c4ncccc34)c2c1 [0o] :: inhibit aggregation

====

# assayed_target: Aβ1-42 (Homo sapiens)
# Construct: Aβ^1-42 (AnaSpec, lot 45685); purchased AnaSpec
# assay_summary: Kinetic Thioflavin T (ThT) aggregation assay of Aβ1-42
# Format: biochemical
# condition_summary: 20 μM Aβ1-42, kinetic ThT assay
readout_type: inhibition of Aβ1-42 aggregation, as measured by ThT fluorescence

1. Oc1ccc2cc(-c3cc4ccccc4o3)ccc2c1 [compound 64, 6-Benzofuran-2-yl-naphthalen-2-ol] :: inhibiting aggregation
2. O=C(O)c1ccc2[nH]cc(-c3c[nH]c4ccc(O)cc34)c2c1 [0j] :: inhibiting aggregation

====

readout_type: melting point

1) c1ccc2c(c1)ccn2Cc1c[nH]c2ccccc12 [1b, 3-((indol-1-yl)methyl)-indole] :: 82 to 84 °C
2) CC1(C)CC2(CC(C)(C)c3c2[nH]c2ccc(O)cc32)c2[nH]c3ccc(O)cc3c21 [1j] :: 140 °C (dec.)
3) CC1(C)CC(C)(c2c[nH]c3ccc(O)cc23)c2[nH]c3ccc(O)cc3c21 (stereo not shown) [1i] :: 132 °C (dec.)
4) CC(C)(c1c[nH]c2ccc(O)cc12)c1c[nH]c2ccc(O)cc12 [1h, 2,2-Bis-(5-hydroxyindol-3-yl)propane] :: 133 to 136 °C
5) O=C(O)c1ccc2[nH]cc(CCc3c[nH]c4ccc(Br)cc34)c2c1 [2b] :: 205 °C (dec.)
6) COc1ccc2c(ccn2Cc2c[nH]c3ccc(OC)cc23)c1 [1d] :: 48 to 50 °C
7) COc1ccc2[nH]cc(-c3c[nH]c4ccc(OC)cc34)c2c1 [0b] :: 193 to 196 °C

====

# assayed_target: Aβ1-40 (Homo sapiens)
# Construct: Aβ^1-40 (AnaSpec, San Jose, Calif., lots 14212, 34862 and 34889); purchased AnaSpec, San Jose, Calif
# Sequence (P05067 672-711 limits assumed): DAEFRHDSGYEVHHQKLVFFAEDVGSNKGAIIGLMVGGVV
# assay_summary: Kinetic Thioflavin T (ThT) aggregation assay of Aβ1-40
# Format: biochemical
# condition_summary: 20 μM Aβ1-40, 4 μM ThT, pH 7.4, 37° C., kinetic ThT assay
# Method: Aβ^1-40 (1.0 mg) was pre-treated in a 1.5 mL microfuge tube with 1,1,1,3,3,3-hexafluoroisopropanol (HFIP, 1 mL) and sonicated for 20 min. to disassemble any pre-formed Aβ aggregates. […] Aliquots (200 μL) of Aβ^1-40, Aβ^1-42, tau441 or α-synuclein with ThT or ThS were added to wells of a black polystyrene 96-well plate, followed by 2 μL of a compound in DMSO (various concentrations), or DMSO alone (controls). […] For Aβ^1-42, readings were taken every 5 min. […]
readout_type: inhibition of Aβ1-40 aggregation, as measured by Thioflavin T (ThT) fluorescence

1. O=c1c(O)c(-c2ccc(O)cc2O)oc2cc(O)cc(O)c12 [morin] :: inhibition
2. Oc1ccc2[nH]cc(C3CNc4ncccc43)c2c1 (stereo not drawn) [0n] :: inhibit aggregation
3. O=C(O)c1ccc2[nH]cc(-c3c[nH]c4ccc(O)cc34)c2c1 [0j] :: inhibition
4. B.COc1ccc2[nH]cc(-c3c[nH]c4ncccc34)c2c1 [10n, 3-(5-methoxyindol-3-yl)-7-azaindole.BH3] :: inhibit aggregation
5. B.O=C(O)c1ccc2[nH]cc(-c3c[nH]c4ncccc34)c2c1 [0o] :: inhibit aggregation
